Target: recombinant HCV NS5B (HCV RNA-dependent RNA polymerase) (Hepatitis C virus genotype 1b, UniProt P26663)
Sequence (P26663 2420-3010 limits assumed): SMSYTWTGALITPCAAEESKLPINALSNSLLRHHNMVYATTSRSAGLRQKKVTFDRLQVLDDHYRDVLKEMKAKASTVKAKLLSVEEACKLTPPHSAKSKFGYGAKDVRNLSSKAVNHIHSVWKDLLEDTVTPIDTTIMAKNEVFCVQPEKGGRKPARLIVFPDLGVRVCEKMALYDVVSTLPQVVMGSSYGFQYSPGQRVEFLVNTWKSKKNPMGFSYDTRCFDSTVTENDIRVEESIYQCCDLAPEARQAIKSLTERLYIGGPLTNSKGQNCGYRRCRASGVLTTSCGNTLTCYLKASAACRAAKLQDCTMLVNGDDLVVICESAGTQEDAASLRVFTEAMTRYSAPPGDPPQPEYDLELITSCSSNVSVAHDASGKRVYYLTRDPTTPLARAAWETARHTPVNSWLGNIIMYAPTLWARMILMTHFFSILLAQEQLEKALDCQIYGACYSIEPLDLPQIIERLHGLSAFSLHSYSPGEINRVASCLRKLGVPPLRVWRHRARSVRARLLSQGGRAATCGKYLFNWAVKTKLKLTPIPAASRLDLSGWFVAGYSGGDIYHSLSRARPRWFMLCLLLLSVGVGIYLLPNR
Test: biochemical
Conditions: related polymerase activity (Example 27 list); read-out: IC50
pIC50: −log10 of the molar value.
measure_name: pIC50

Previously resolved entries follow.
smiles_repr: Cc1ccc(S(=O)(=O)Nc2cc(-c3ccc(/C=C/C(=O)O)cc3)sc2C(=O)O)c(C)c1
endpoint_result: > 5.30

smiles_repr: O=C(Nc1cc(-c2ccccc2)sc1C(=O)O)c1ccc(F)cc1F
endpoint_result: < 4.70

smiles_repr: C=CCN(C(=O)Cc1ccc(F)cc1Cl)c1cc(-c2ccccc2)sc1C(=O)O
endpoint_result: 4.70 to 5.30

Here are 3 molecules. What values of pIC50 were reported for them?
1. Cc1ccc(C(=O)N(C)c2cc(-c3ccc([N+](=O)[O-])cc3)sc2C(=O)O)cc1
2. Cc1cc(S(=O)(=O)N(Cc2cccc(-c3cc4ccccc4o3)c2)c2cc(-c3ccccc3)sc2C(=O)O)c(C)cc1Cl
3. C=CCCC(=O)N(C)c1cc(-c2ccccc2)sc1C(=O)O

// result
1. 4.70 to 5.30
2. 4.70 to 5.30
3. 4.70 to 5.30

Batch request: pIC50 for each of the following molecules.
1. O=C(O)c1sc(-c2ccccc2)cc1NS(=O)(=O)c1cc(F)c(Br)cc1F
2. CC(=O)Nc1nc(C)c(S(=O)(=O)Nc2cc(-c3ccccc3)sc2C(=O)O)s1

// result
["> 5.30", "4.70 to 5.30"]

* * *

Molecular target: recombinant HCV NS5B (HCV RNA-dependent RNA polymerase) (Hepatitis C virus genotype 1b, UniProt P26663)
Experiment: biochemical
Conditions: HCV polymerase activity, list of compounds of Example 27; read-out: IC50 (polymerase activity)
measure_name: IC50

For every record below, what is its IC50?
1. Cc1ccc(S(=O)(=O)Nc2cc(-c3ccc(F)cc3)sc2C(N)=O)cc1
2. CC(C)C(=O)N(Cc1ccc(Cl)cc1)c1cc(-c2ccccc2)sc1C(=O)O
3. CC(C)N(C(=O)c1ccc(Cl)cc1Cl)c1cc(-c2ccc3[nH]ccc3c2)sc1C(=O)O
4. CC1CCC(C(=O)N(c2cc(-c3ccccc3)sc2C(=O)O)C2CCCCC2)CC1 (centres unmarked)
5. CC(C)(C)c1ccc(CN(C(=O)C2CC2)c2cc(-c3ccccc3)sc2C(=O)O)cc1
6. Cc1cccc(CN(C(=O)CC2CCCC2)c2cc(-c3ccccc3)sc2C(=O)O)c1
7. CC1CCC(C(=O)N(c2ccncc2)c2cc(-c3ccccc3)sc2C(=O)O)CC1 (centres unmarked)
8. CCCC(=O)N(Cc1ccc(C(F)(F)F)cc1)c1cc(-c2ccccc2)sc1C(=O)O

// result
5 to 20 µM
5 to 20 µM
< 5 µM
< 5 µM
5 to 20 µM
< 5 µM
< 5 µM
5 to 20 µM

* * *

Assignment: determine reported IC50 for the given molecules.
Molecular target: recombinant HCV NS5B (HCV RNA-dependent RNA polymerase) (Hepatitis C virus genotype 1b, UniProt P26663)
Test: biochemical
Conditions: related polymerase activity (Example 27 list); read-out: IC50

Previously resolved entries follow.
molecule: CCCCc1ccc(-c2cc(NS(=O)(=O)c3ccccc3C)c(C(=O)O)s2)cc1 [Compound 231]
measure_name: IC50
endpoint_result: < 5 µM
--
molecule: Cc1ccccc1S(=O)(=O)Nc1cc(-c2ccc(C(F)(F)F)cc2)sc1C(=O)O [Compound 88]
measure_name: IC50
endpoint_result: < 5 µM
--
molecule: O=C(O)c1sc(-c2ccccc2)cc1NS(=O)(=O)c1ccccc1CCl [Compound 189]
measure_name: IC50
endpoint_result: 5 to 20 µM

// for each molecule in input: emit IC50
1. CCc1ccc(-c2cc(NS(=O)(=O)c3ccccc3C)c(C(=O)O)s2)cc1 [Compound 232]
2. CC(C)N(C(=O)c1ccc(Cl)cc1Cl)c1cc(-c2ccccc2)sc1C(=O)O [Compound 149]
3. Cc1ccc(C(=O)N(c2cc(-c3cccc(C(F)(F)F)c3)sc2C(=O)O)C(C)C)cc1 [Compound 304]
4. N#Cc1ccccc1S(=O)(=O)Nc1cc(-c2ccccc2)sc1C(=O)O [Compound 54]
5. Cc1ccc(C(=O)N(C)c2cc(-c3cccnc3)sc2C(=O)O)cc1 [Compound 302]

// result
1. < 5 µM
2. < 5 µM
3. < 5 µM
4. < 5 µM
5. 5 to 20 µM

Taken from patent US6881741B2.
